The entries below are paired with their reported inhibition.
Molecular target: Serine/threonine-protein kinase 4 (Homo sapiens) (UniProt Q13043)
Sequence (Q13043 whole entry): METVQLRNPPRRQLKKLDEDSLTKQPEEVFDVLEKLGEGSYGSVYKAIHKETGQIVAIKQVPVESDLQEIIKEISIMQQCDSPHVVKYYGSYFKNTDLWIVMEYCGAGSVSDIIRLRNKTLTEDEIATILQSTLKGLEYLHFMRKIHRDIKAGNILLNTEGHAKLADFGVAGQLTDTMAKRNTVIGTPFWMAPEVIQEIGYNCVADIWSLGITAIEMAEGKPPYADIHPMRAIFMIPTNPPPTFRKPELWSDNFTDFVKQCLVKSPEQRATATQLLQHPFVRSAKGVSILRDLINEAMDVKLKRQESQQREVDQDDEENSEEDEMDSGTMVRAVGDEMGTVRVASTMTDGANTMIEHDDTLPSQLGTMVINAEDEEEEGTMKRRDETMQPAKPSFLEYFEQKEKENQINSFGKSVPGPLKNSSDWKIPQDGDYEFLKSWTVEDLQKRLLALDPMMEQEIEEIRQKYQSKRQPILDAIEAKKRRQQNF
Assay: Inhibition of MST1 at 1 uM
readout type: inhibition

mol smiles	reading
CS(=O)(=O)N1CCN(Cc2cn3c(Cl)c(-c4cnc(N)nc4)nc(N4CCOCC4)c3n2)CC1	< 30%
Cc1c(CN2CCN(S(C)(=O)=O)CC2)nc2c(N3CCOCC3)nc(-c3cnc(N)nc3)cn12	< 30%
Cc1nc(N)ncc1-c1cn2cc(CN3CCN(S(C)(=O)=O)CC3)nc2c(N2CCOCC2)n1	< 30%
CS(=O)(=O)N1CCN(Cc2nc3c(N4CCOCC4)nc(-c4cnc(N)nc4)cn3c2Br)CC1	< 30%
CS(=O)(=O)N1CCN(Cc2cn3cc(-c4cnc(N)nc4)nc(N4CCOCC4)c3n2)CC1	< 30%
